- MEASUREMENT_PROTOCOL: Plasma pharmacokinetics of SU5416 and metabolites in Phase I patients (HPLC UV)
- Type: in vivo, human
- PARTICULARS: human, plasma, iv, 48 mg m^−2, individual patients, twice weekly i.v. infusion, dose 48 mg m^−2, cycle 2inj8; read-out: Vz (observed)
PROPERTY_MEASURED: Vd (L)
# value in L; strip the unit string

[Q] Vd lookup needed for `Cc1cc(C)c(/C=C2\C(=O)Nc3ccccc32)[nH]1` , thanks.
[A] 131

* * *

- MEASUREMENT_PROTOCOL: Plasma pharmacokinetics of SU5416 and metabolites in Phase I patients (HPLC UV)
- Assay type: in vivo, human
- PARTICULARS: human, in vivo, iv, 145 mg m^−2, individual patients, twice weekly i.v. infusion, dose 145 mg m^−2, cycle 2inj8; read-out: CL (observed) (converted)
PROPERTY_MEASURED: clearance (mL/min)
# value in mL/min; strip the unit string

[Q] clearance lookup needed for Cc1cc(C)c(/C=C2\C(=O)Nc3ccccc32)[nH]1 [SU5416] , thanks.
[A] 3730

Data credit: paper PMC2361651
